Values from PubChem BioAssay (NCATS)

Tested on: MKL-1
Assay: qHTS assay to identify novel small-molecules to repurpose for Merkel cell carcinoma treatment (AID 1296009); further: nearly all actives have a fitted effect of over 60% in size; further: potency means the concentration at half of the fitted maximal effect
Settings: MCC and control cell lines, CellTiter-Glo viability, 72 h; series mostly up to 46 µM
Records with an inconclusive call do not appear. Active and inactive are the calls of the source. The call rests on the fitted dose curve; in most records, active means well fitted inhibition curve with a large enough effect; inconclusive means small, poorly fitted or top-dose-only effect; inactive means flat fitted curve, though single readings scatter.
quantity.kind: Potency

>  <mol>
C=C1C[C@H]2[C@H]3CCC(=O)[C@@]3(C)CC[C@@H]2[C@@]2(C)C=CC(=O)C=C12

>  <quantity.kind>
Potency

>  <endpoint.result>
inactive

$$$$
>  <mol>
CN(C)[C@@H]1C(=O)C(C(N)=O)=C(O)[C@@]2(O)C(=O)C3=C(O)c4c(O)cccc4[C@@](C)(O)[C@H]3[C@H](O)[C@@H]12

>  <quantity.kind>
Potency

>  <endpoint.result>
inactive

$$$$
>  <mol>
C[C@@]12OC(=O)[C@]1([C@@H](O)[C@@H]1C=CCCC1)NC(=O)[C@H]2CCCl

>  <quantity.kind>
Potency

>  <endpoint.result>
1.18 µM (active)

$$$$

====

Assay: Primary qHTS to identify inhibitors of SARS-CoV-2 cell entry (AID 1645846); further: nearly all actives have a fitted effect of over 45% in size
Conditions: SARS-CoV-2 pseudovirus cell entry assay, luminescence; at 57.1 µM (top of the series) unless noted
Records with an inconclusive call do not appear.
Reported values of activity change, negative = inhibition for individual entries
quantity.kind: activity change, negative = inhibition

>  <compound>
COc1ccc2c3n(c(=NC(=O)c4cccnc4)nc2c1OC)CCN3

>  <endpoint.result>
-3.67% [at 5.25 µM]

$$$$
>  <compound>
CC(=O)NC(C)c1ccc(Oc2ccc(OC(C)C)cc2)cc1 (stereo not drawn)

>  <endpoint.result>
-26.1% [at 114 µM]

$$$$
>  <compound>
O=C(Nc1cc(Cl)cc2c1[nH]c1cnccc12)c1cccnc1

>  <endpoint.result>
-24.6% [at 27.1 µM]

$$$$

====

Assay: qHTS for Inhibitors of the Functional Ribonucleoprotein Complex (vRNP) of Lassa (LASV) Arenavirus: Viability assay - alamar blue signal for LASV Primary Screen (AID 1347083); further: on the % scale 0 is the no-effect control and ±100 the full control effect; nearly all actives have a fitted effect of over 80% in size
Conditions: cell viability, alamar blue fluorescence (LASV minigenome counter-screen); series mostly up to 57.5 µM
Inconclusive results are not listed. Active and inactive are the calls of the source. The call rests on the fitted dose curve; tested in HEK293 reporter line.
quantity.kind: outcome

>  <molecule>
c1ccc2occc2c1

>  <quantity.kind>
outcome

>  <endpoint.result>
inactive

$$$$
>  <molecule>
Cc1nn(Cc2ccccc2Cl)c(C)c1CN(C)CC(O)COc1ccc(Cl)cc1 (stereo not drawn)

>  <quantity.kind>
outcome

>  <endpoint.result>
inactive

$$$$
>  <molecule>
CC(C)(C)C(=O)Oc1ccc2c(c1)nc(NC(=O)c1cccc([N+](=O)[O-])c1)n2CCCO

>  <quantity.kind>
outcome

>  <endpoint.result>
inactive

$$$$

====

Molecular target: Luciferin 4-monooxygenase (Photinus pyralis) (UniProt P08659)
Sequence (P08659 whole entry, looked up): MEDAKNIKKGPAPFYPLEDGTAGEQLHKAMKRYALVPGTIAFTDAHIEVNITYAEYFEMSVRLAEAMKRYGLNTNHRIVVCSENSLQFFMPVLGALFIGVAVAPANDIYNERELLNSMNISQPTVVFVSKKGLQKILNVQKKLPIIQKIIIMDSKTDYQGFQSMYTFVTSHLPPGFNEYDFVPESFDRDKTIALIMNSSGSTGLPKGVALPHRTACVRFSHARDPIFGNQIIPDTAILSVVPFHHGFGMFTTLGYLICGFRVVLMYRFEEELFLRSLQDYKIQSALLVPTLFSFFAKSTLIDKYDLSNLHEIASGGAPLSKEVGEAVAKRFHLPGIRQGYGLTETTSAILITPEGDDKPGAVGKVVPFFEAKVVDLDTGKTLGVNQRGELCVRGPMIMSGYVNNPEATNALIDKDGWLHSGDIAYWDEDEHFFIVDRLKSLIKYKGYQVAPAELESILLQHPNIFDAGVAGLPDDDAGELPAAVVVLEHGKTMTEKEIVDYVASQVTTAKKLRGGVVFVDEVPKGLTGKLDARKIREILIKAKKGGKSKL
Assay: Biochemical firefly luciferase enzyme assay for NPC (AID 624030); further: nearly all actives have a fitted effect of over 70% in size
Details: purified P. pyralis luciferase, luminescence, 5 min; series mostly up to 58.6 µM
Records with an inconclusive call do not appear. Active and inactive are the calls of the source. The call rests on the fitted dose curve; in most records, active means well fitted inhibition curve with a large enough effect; inconclusive means small, poorly fitted or top-dose-only effect; inactive means flat fitted curve, though single readings scatter.
Labels: T = active, F = inactive

>  <molecule>
Nc1ccc(Cl)cc1N

>  <label.class>
T

$$$$
>  <molecule>
CCOP(=O)(NC(C)C)Oc1ccc(SC)c(C)c1 (stereo unspecified)

>  <label.class>
F

$$$$
>  <molecule>
O=C(Nc1ccccc1-c1ccc(Cl)cc1)c1cccnc1Cl

>  <label.class>
F

$$$$
>  <molecule>
O=C(O)c1ccccc1O

>  <label.class>
F

$$$$
>  <molecule>
CN1C2CCC1CC(OC(=O)c1cc(Cl)cc(Cl)c1)C2 (stereo unspecified)

>  <label.class>
F

$$$$
>  <molecule>
C=CC(=O)NCNC(=O)C=C

>  <label.class>
F

$$$$
>  <molecule>
CC(O)CN1CCN(CC(=O)[O-])CCN(CC(=O)[O-])CCN(CC(=O)[O-])CC1.[Gd+3] (stereo unspecified)

>  <label.class>
F

$$$$
>  <molecule>
NC1=NC(=O)N2CC12 (stereo unspecified)

>  <label.class>
F

$$$$
>  <molecule>
CCCCCCCCCCCCCCCC[N+](C)(C)C

>  <label.class>
F

$$$$
>  <molecule>
CC(C)(C)NC[C@H](O)c1ccc(O)cc1Cl

>  <label.class>
F

$$$$
>  <molecule>
CC(C)(C)C(O)C(Oc1ccc(Cl)cc1)n1cncn1 (stereo unspecified)

>  <label.class>
F

$$$$

====

Assay: qHTS of pediatric cancer cell lines to identify multiple opportunities for drug repurposing: Primary screen for NB1643 cells (AID 1347099); further: nearly all actives have a fitted effect of over 50% in size; further: potency means the concentration at half of the fitted maximal effect
Conditions: NB1643 neuroblastoma viability, CellTiter-Glo luminescence, 48 h; series mostly up to 46 µM
Experimental: Drug repurposing or repositioning has been offered as a strategy for drug development in oncology programs. This approach has special potential for childhood cancers and other rare or orphan diseases, where the expected return on new drug development has been a disincentive to pharmaceuticals. […] We employed a titration-based paradigm (quantitative high-throughput screening or qHTS), where all compounds were tested at multiple concentrations for their effect on cell viability. […]
Results filed as inconclusive are left out. Calls of active or inactive are those of the source. Calls come from the whole dose curve; as a rule, active = well fitted cell-killing curve with a large enough effect; inconclusive = small, poorly fitted or top-dose-only effect; inactive = no such curve, though single readings can be large or run the other way.

>  <molecule>
O=c1[nH]c2ccc(Cl)cc2c(N[C@@H]2CN3CCC2CC3)c1-c1nc2ccccc2[nH]1

>  <Potency>
0.526 µM (active)

$$$$
>  <molecule>
COC(=O)c1cncn1C(C)c1ccccc1 (centres undefined)

>  <Potency>
inactive

$$$$
>  <molecule>
O=C(Nc1ccccc1-c1ccc(Cl)cc1)c1cccnc1Cl

>  <Potency>
inactive

$$$$
>  <molecule>
CCNC(=O)CC1N=C(c2ccc(Cl)cc2)c2cc(OC)ccc2-n2c(C)nnc21 (centres undefined)

>  <Potency>
14.8 µM (active)

$$$$
>  <molecule>
NC1=NC(=O)N2CC12 (centres undefined)

>  <Potency>
inactive

$$$$
>  <molecule>
CC(C)N(CCNC(=O)CN1CCCC1=O)C(C)C

>  <Potency>
inactive

$$$$
>  <molecule>
CC(=O)[O][Hg][c]1ccccc1

>  <Potency>
1.19 µM (active)

$$$$
>  <molecule>
C[C@]12CC[C@H]3[C@@H](CCC4=CC(=O)CC[C@@]43C)[C@H]1CC[C@H]2OC(=O)CCC1CCCC1

>  <Potency>
inactive

$$$$
>  <molecule>
COc1ccc(C(=O)c2c(C)n(CCN3CCOCC3)c3cc(I)ccc23)cc1

>  <Potency>
14.8 µM (active)

$$$$
>  <molecule>
CS(=O)(=O)c1ccc(C(=O)C2C(=O)CCCC2=O)c([N+](=O)[O-])c1

>  <Potency>
0.001 µM (active)

$$$$
>  <molecule>
CCC1(CCC(C)C)C(=O)NC(=O)NC1=O

>  <Potency>
inactive

$$$$
>  <molecule>
C#C[C@]1(O)C=C[C@@H]2[C@@H]3CCC4=CC(=O)CC[C@@H]4[C@H]3CC[C@@]21CC

>  <Potency>
8.33 µM (active)

$$$$
>  <molecule>
O=[N+]([O-])c1ccc([As](=O)(O)O)cc1

>  <Potency>
inactive

$$$$
>  <molecule>
CC(Cc1ccc(O)cc1)NCC(O)c1cc(O)cc(O)c1 (centres undefined)

>  <Potency>
inactive

$$$$
>  <molecule>
CC(=O)N(C)c1cccc(-c2ccnc3c(C(=O)c4cccs4)cnn23)c1

>  <Potency>
inactive

$$$$
>  <molecule>
CN1[C@H]2CC(O)C[C@H]1[C@H]1O[C@H]12 (some centres undefined)

>  <Potency>
20.9 µM (active)

$$$$
>  <molecule>
CCCCCC[C@H]1C(=O)O[C@H](C)[C@H](NC(=O)c2cccc(NC=O)c2O)C(=O)O[C@@H](C)[C@@H]1OC(=O)CC(C)C

>  <Potency>
23.5 µM (active)

$$$$
>  <molecule>
CC[C@@]1(O)C(=O)OCc2c1cc1n(c2=O)Cc2cc3ccccc3nc2-1

>  <Potency>
0.0469 µM (active)

$$$$
>  <molecule>
CCCCC(CC)COC(=O)c1ccccc1C(=O)OCC(CC)CCCC (centres undefined)

>  <Potency>
inactive

$$$$
>  <molecule>
Cc1ccccc1-n1c(Cn2cnc3c(N)ncnc32)nc2cccc(C)c2c1=O

>  <Potency>
0.59 µM (active)

$$$$
>  <molecule>
C=C[C@@H]1CN2CCC1C[C@@H]2[C@@H](O)c1ccnc2ccccc12 (some centres undefined)

>  <Potency>
10.5 µM (active)

$$$$
>  <molecule>
C[C@H]1CCCC=CC2C[C@H](O)C[C@@H]2[C@H](O)C=CC(=O)O1 (some centres undefined)

>  <Potency>
0.001 µM (active)

$$$$
>  <molecule>
O=C(O)COc1nc(Cl)c(Cl)cc1Cl

>  <Potency>
inactive

$$$$
>  <molecule>
CCCCCCCCc1ccc(O)cc1

>  <Potency>
inactive

$$$$

====

Test: qHTS for Inhibitors of the Functional Ribonucleoprotein Complex (vRNP) of Lymphocytic Choriomeningitis Arenaviruses (LCMV): Viability assay - alamar blue signal for LCMV Primary Screen (AID 1347085); further: nearly all actives have a fitted effect of over 80% in size
Settings: alamar blue viability counter-screen, LCMV vRNP screen cells; series mostly up to 57.5 µM
Results filed as inconclusive are left out. Calls of active or inactive are those of the source. Calls come from the whole dose curve; tested in HEK293 reporter line.
Labels: active, inactive

>  <compound>
C[C@]12C[C@H](O)[C@H]3[C@@H](CCC4=CC(=O)CC[C@@]43C)[C@@H]1CC[C@@H]2C(=O)CO

>  <label.class>
inactive

$$$$
>  <compound>
CC1(O)CC(c2nc(-c3ccc4ccc(-c5ccccc5)nc4c3)c3c(N)nccn23)C1 (stereo not given)

>  <label.class>
active

$$$$
>  <compound>
CCn1c(-c2nonc2N)nc2c(C#CC(C)(C)O)ncc(OC[C@H]3CCCNC3)c21

>  <label.class>
active

$$$$
>  <compound>
O=C(C1CC1)N1CC[C@@H](Cn2c(-c3ccc(-c4ccc5occc5c4)cc3)nc3cnccc32)C1

>  <label.class>
active

$$$$
>  <compound>
COc1cc2ncn(-c3cc(OCc4ccccc4C(F)(F)F)c(C(N)=O)s3)c2cc1OC

>  <label.class>
active

$$$$
